Target: κ opioid receptor (Cavia porcellus)
Construct: tissue Pel-Freeze Biological Inc. (Rogers, Ark.); host or cells: guinea pig cerebellum membranes
Assay: Radioligand binding, [3H]U69593 competition, guinea pig cerebellum membranes
Conditions: read-out: Guinea Pig Brain Membrane K1 (nM) κ
OBSERVED_PROPERTY: Ki

compound="C=CCN1C[C@H](C)N([C@@H](c2ccsc2)c2cccc(O)c2)C[C@H]1C (racemic) [Compound 4]" target="κ opioid receptor (Cavia porcellus)" observed_property=Ki result="2.34 nM"
compound=C=CCN1C[C@H](C)N([C@H](c2ccsc2)c2cccc(O)c2)C[C@H]1C target="κ opioid receptor (Cavia porcellus)" observed_property=Ki result="1.77 nM"
compound="C=CCN1C[C@H](C)N([C@@H](c2ccsc2)c2cccc(O)c2)C[C@H]1C [Compound 5]" target="κ opioid receptor (Cavia porcellus)" observed_property=Ki result="1.73 nM"
compound=C=CCN1C[C@@H](C)N([C@H](c2ccsc2)c2cccc(O)c2)C[C@@H]1C target="κ opioid receptor (Cavia porcellus)" observed_property=Ki result="16 nM"
compound="C=CCN1C[C@@H](C)N([C@@H](c2ccsc2)c2cccc(O)c2)C[C@@H]1C (racemic) [Compound 1]" target="κ opioid receptor (Cavia porcellus)" observed_property=Ki result="1.67 nM"
compound="C=CCN1C[C@@H](C)N([C@@H](c2ccsc2)c2cccc(O)c2)C[C@@H]1C [Compound 3]" target="κ opioid receptor (Cavia porcellus)" observed_property=Ki result="100 nM"

From: patent US6924288B2
